tested target: T1, integrin αvβ3, purified from human placenta (human, UniProt P06756 31-1048; P05106 27-788)
T1 construct: mature; Native heterodimer, immobilized on ELISA plates or on the BIAcore chip; biotinylated in capture lift and capture ELISA screens; also called αvβ3 receptor; vitronectin receptor
T1 sequence (P06756 31-1048, form in doubt, chain 1 of 2): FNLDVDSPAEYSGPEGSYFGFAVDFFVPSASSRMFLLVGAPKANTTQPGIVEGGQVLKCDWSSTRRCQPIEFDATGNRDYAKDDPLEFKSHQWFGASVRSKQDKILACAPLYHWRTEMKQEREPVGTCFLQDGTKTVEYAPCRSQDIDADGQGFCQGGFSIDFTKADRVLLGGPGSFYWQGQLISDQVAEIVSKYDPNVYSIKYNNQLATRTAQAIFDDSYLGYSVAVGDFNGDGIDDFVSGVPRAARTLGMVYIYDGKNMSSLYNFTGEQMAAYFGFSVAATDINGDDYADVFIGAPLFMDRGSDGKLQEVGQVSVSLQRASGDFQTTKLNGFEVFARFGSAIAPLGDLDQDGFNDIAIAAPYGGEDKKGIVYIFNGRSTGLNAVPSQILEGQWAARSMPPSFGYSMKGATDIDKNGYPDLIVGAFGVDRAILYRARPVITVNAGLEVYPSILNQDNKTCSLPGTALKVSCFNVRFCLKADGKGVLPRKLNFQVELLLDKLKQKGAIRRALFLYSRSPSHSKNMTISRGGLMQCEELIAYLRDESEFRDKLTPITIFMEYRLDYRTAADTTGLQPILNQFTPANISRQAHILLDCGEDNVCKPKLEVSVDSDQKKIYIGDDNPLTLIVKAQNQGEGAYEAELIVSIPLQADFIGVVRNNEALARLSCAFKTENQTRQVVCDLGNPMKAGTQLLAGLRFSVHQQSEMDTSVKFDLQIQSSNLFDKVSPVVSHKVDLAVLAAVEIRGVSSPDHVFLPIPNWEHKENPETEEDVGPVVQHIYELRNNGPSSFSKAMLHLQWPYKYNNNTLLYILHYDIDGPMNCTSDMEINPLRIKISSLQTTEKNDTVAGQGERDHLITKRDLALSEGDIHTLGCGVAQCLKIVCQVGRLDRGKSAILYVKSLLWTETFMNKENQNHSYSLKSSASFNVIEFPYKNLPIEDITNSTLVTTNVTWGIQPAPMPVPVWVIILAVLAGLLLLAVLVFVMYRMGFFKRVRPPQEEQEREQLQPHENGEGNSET
T1 sequence (P05106 27-788, form in doubt, chain 2 of 2): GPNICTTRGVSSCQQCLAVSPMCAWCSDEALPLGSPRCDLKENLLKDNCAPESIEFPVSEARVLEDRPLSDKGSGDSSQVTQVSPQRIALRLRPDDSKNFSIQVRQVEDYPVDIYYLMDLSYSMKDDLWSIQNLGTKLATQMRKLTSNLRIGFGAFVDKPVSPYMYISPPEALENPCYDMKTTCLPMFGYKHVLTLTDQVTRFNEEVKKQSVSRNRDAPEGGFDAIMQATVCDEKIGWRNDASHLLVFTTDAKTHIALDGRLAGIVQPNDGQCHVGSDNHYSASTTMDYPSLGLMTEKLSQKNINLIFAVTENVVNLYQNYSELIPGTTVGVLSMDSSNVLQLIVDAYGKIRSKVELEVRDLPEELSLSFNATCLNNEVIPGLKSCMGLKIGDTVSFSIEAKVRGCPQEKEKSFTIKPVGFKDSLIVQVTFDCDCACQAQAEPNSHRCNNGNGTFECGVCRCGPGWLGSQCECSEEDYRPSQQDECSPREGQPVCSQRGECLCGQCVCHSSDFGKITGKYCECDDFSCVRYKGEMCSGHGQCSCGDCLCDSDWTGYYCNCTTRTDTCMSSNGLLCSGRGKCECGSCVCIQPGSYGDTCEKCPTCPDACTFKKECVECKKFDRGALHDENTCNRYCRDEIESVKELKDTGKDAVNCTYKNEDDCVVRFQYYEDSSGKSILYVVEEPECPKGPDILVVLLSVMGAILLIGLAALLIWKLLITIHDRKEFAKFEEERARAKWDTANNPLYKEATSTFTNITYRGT
experiment: ELISA titration of Fab on immobilized αvβ3
Would you kindly list fold enhanced binding over parent LM609 grafted antibody for each of these binders?

Exercise: What does the record list as fold enhanced binding over parent LM609 grafted antibody for LM609 grafted antibody variant D101 (Fab, V domains shown, Fab) VH: QVQLVESGGGVVQPGRSLRLSCAASGFTFSSYDMSWVRQAPGKGLEWVAKVSSGGGSTYYLDTVQGRFTISRDNSKNTLYLQMNSLRAEDTAVYYCARHNYGSFDYWGQGTTVTVSS VL: EIVLTQSPATLSLSPGERATLSCQASQSISNHLHWYQQRPGQAPRLLIRYRSQSISGIPARFSGSGSGTDFTLTISSLEPEDFAVYYCQQSGSWPHTFGGGTKVEIK ?
Key: > 3 fold

Exercise: What does the record list as fold enhanced binding over parent LM609 grafted antibody for LM609 grafted antibody variant L96 (Fab, V domains shown, Fab) VH: QVQLVESGGGVVQPGRSLRLSCAASGFTFSSYDMSWVRQAPGKGLEWVAKVSSGGGSTYYLDTVQGRFTISRDNSKNTLYLQMNSLRAEDTAVYYCARHNYGSFAYWGQGTTVTVSS VL: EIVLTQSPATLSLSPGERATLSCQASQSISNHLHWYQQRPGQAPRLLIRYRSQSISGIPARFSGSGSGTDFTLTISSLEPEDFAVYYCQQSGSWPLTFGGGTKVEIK ?
Key: > 3 fold

Exercise: What does the record list as fold enhanced binding over parent LM609 grafted antibody for LM609 grafted antibody variant H97 (Fab, V domains shown, Fab) VH: QVQLVESGGGVVQPGRSLRLSCAASGFTFSSYDMSWVRQAPGKGLEWVAKVSSGGGSTYYLDTVQGRFTISRDNSKNTLYLQMNSLRAEDTAVYYCARHNHGSFAYWGQGTTVTVSS VL: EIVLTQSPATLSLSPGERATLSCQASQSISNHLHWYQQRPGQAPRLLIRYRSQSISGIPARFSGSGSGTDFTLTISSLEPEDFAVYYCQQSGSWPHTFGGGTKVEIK ?
Key: > 3 fold

Data provenance: patent US20060204492A1
